log10 GI50 values recorded for HCT-15
recorded.endpoint: log10 GI50 (log10 of the value in µM)

molecule="C=CC(Br)(CBr)CCC(Br)C(C)C (stereo not drawn)" measurement=0.67
molecule=Cc1cc(N(CCC#N)CCC#N)ccc1/C=C1N=C(/C=C\c2ccccc2)N(c2ccc(Cl)cc2)C\1=O measurement=-0.14
molecule=CCN(CC)c1c(C(=O)/C=C/c2ccc(Cl)cc2)c(-c2ccccc2)nn(C)c1=O measurement=0.23
molecule=N#CCCN(CCC#N)c1ccc(/C=C2\N=C(c3ccccc3)N(c3ccc(C(=O)O)cc3)C2=O)cc1 measurement=1.61
molecule=CN(C)CCc1c2c(nc3ccccc13)C(=O)c1cccnc1C2=O measurement=-1.46
molecule="COc1oc(C2C/C(=C/C(C)=C/C(C)=C/C(C)=C/c3ccc([N+](=O)[O-])cc3)CO2)c(C)c(=O)c1C (stereo not drawn)" measurement=0.75
molecule=CC(C)(C)Cc1cc(O)ccc1O measurement=1.54
molecule=O=C(Cc1ccc(Cl)c(Cl)c1)NCCCN1CCN(CCCN2CCCCC2)CC1 measurement=1.32
molecule=O=C1CC(=O)NC(NN2C(=O)/C(=C/c3ccc(Cl)c(Cl)c3)N=C2c2ccccc2)=N1 measurement=1.48
molecule=O=C1/C(=N\n2c(S)nnc2-c2ccncc2)c2cc(Cl)ccc2N1CN1CCCCC1 measurement=1.40
molecule=Cc1sc2nc(-c3ccc(Cl)c([N+](=O)[O-])c3)c(/C=N/NC(=N)N)n2c1C measurement=0.14
molecule=C[C@H]1O[C@@H](O[C@H]2[C@@H](O)C[C@H](O[C@H]3[C@@H](O)C[C@H](O[C@H]4CC[C@@]5(C)[C@H](CC[C@@H]6[C@@H]5CC[C@]5(C)[C@@H](C7=CC(=O)OC7)[C@@H](O)C[C@]65O)C4)O[C@@H]3C)O[C@@H]2C)C[C@H](O)[C@@H]1O measurement=-0.23
molecule="COC(O)C(=O)c1c2c(cc3c1CC1(Cc4cc5c(cc4C1)CCC5)C3)CCC2 (stereo not drawn)" measurement=1.32
molecule=O=c1c2cc([N+](=O)[O-])ccc2n(Cc2ccccc2)n1Cc1ccccc1 measurement=1.30
molecule=COc1ccc(-n2c3c(c4c(CN(C)C)c(O)ccc42)C(=O)c2ccccc2C3=O)cc1 measurement=0.49
molecule=COc1cc(Nc2ccc3c(c2)CCC3)nc(OC)n1 measurement=1.44
molecule=CCn1c2ccc(O)c(C(=O)OC)c2c2cc3ccccc3c(O)c21 measurement=1.18
molecule=Clc1cccc(Cl)c1C(Nc1nncs1)Nc1nncs1 measurement=1.11
molecule=CN(C)c1ccc(/C=C2\C[C@H]3[C@@H]4CCC5=CC(=O)CC[C@]5(C)[C@H]4CC[C@]3(C)C2=O)cc1 measurement=1.54
molecule=COc1ccc(C2=NOP(c3ccccc3)(c3ccccc3)(c3ccccc3)C2)cc1 measurement=1.31

###

Test system: RPMI-8226
Assay: NCI tumour cell line growth inhibition, 48 h
Calls of active or inactive are those of the source. No stated cut-off is given here; in the data, active = GI50 up to about 1.1 µM and inactive = higher.
Classes used: Y for active, N for inactive

compound=CN(CCc1ccc(N)cc1)[C@H]1CCCC[C@H]1N1CCCC1 group_label=N
compound="COC1(O)c2cccc(Cl)c2C(=O)N1C1(C(N)=O)CCCCC1 (stereo not given)" group_label=N
compound="NC1=NN(c2ccccc2)C(=O)C1C(=O)C(=O)Nc1cccc(C(F)(F)F)c1 (stereo not given)" group_label=N
compound="C#CCNC(=O)NC(CCCNC(=O)OCc1ccccc1)C(=O)OCc1ccccc1 (stereo not given)" group_label=N
compound="CC(=O)OC1C=CC2CCN3C(=O)c4cc5c(cc4[C@H]1C23)OCO5 (stereo not given in full)" group_label=N
compound="CN1C(=O)N(C)C2(CCN(CC(CC3OCCO3)c3ccc(F)cc3)CC2)C1=O (stereo not given)" group_label=N
compound="COc1ccc2c(c1)CCc1cnn(C3OC(COC(C)=O)C(OC(C)=O)C(OC(C)=O)C3OC(C)=O)c1-2 (stereo not given)" group_label=N
compound="COc1oc(C2C/C(=C/C(C)=C/C(C)=C/C(C)=C/c3ccc([N+](=O)[O-])cc3)CO2)c(C)c(=O)c1C (stereo not given)" group_label=Y
compound=CSc1nc(Nc2cccc(C(F)(F)F)c2)c2c(N)nn(C)c2n1 group_label=N
compound="Cc1cccc(C)c1NC(=O)CCCC(=O)C1CCC/C1=N\\NC(=O)C(=O)NN (stereo not given)" group_label=N
compound="O=C(O)C(SC(=S)c1ccc(C(=S)SC(C(=O)O)c2ccccc2)cc1)c1ccccc1 (stereo not given)" group_label=N
compound=O=[N+]([O-])c1ccc(-c2nc3ccccc3o2)cc1 group_label=N
compound="O=S1(=O)c2ccccc2NC(c2ccc3ccccc3c2)CC1c1ccccc1F (stereo not given)" group_label=N
compound=CC(=O)Nc1ccc(/C=C2\N=C(c3ccccc3)OC2=O)cc1 group_label=N
compound="CC1CCC2(C)C(CC=C(C=O)C2(O)C=O)C12CO2 (stereo not given)" group_label=N
compound=O=C1CCCc2c(O)ccc(O)c21 group_label=N
compound=COC(=O)c1c2c(c(-c3ccccc3)c3c1-c1nc(Cl)ccc1CC3)CCc1ccc(Cl)nc1-2 group_label=N
compound="COc1ccc(C2CC(c3c(C)nn(-c4ccccc4)c3-c3ccc(C)cc3O)=NN2c2ccccc2)cc1 (stereo not given)" group_label=N
compound=CC(=O)N1CC(C)(C)c2c1cc(C)c(O)c2C group_label=N
compound="CN/N=C(/CCN1CCCC1)CC(c1ccccc1)c1c(O)c2ccccc2oc1=O (stereo not given)" group_label=N
